Origin of values: paper PMC9482650

# MEASUREMENT_TARGET: HTRA1, Q92743
# Sequence (Q92743 360-477): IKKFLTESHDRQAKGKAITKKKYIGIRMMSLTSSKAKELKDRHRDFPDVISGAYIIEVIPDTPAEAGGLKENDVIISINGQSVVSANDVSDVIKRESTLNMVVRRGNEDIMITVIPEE
# EXPERIMENT_NOTES: holdup assay
# Set-up: key: below the threshold = too weak to quantify, mostly under pKd 3.1 to 4
# PROTOCOL_CONDITIONS: plain residues with an end cap or a label only (N-terminal biotin on a linker: ado-ado)
I would appreciate it if you labelled entries class 1 when pKd is 4 or higher, otherwise class 0.

As a guide, the following entries are already answered.
KPGKGSETVV [FZD4, Q9ULV1]	class 1
SLNANEVEWF [RNF130, Q86XS8]	class 1
PYSESDDDWC [CACNA1A, O00555]	class 1
NVYGIESVKI [GRIA2, P42262]	class 1
GIKKITSTAL [RPS6KA3, P51812]	class 0

Now look at this entry.
pKd >= 4 for DPAESMESLV [PTPRG, P23470] ?
class 1
